- MEASUREMENT TARGET: Human recombinant MMP-2 (Homo sapiens, UniProt P08253)
- Construct: made in house; host or cells: MMP-2-transfected p2AHT2 cells
- Sequence (P08253 110-660): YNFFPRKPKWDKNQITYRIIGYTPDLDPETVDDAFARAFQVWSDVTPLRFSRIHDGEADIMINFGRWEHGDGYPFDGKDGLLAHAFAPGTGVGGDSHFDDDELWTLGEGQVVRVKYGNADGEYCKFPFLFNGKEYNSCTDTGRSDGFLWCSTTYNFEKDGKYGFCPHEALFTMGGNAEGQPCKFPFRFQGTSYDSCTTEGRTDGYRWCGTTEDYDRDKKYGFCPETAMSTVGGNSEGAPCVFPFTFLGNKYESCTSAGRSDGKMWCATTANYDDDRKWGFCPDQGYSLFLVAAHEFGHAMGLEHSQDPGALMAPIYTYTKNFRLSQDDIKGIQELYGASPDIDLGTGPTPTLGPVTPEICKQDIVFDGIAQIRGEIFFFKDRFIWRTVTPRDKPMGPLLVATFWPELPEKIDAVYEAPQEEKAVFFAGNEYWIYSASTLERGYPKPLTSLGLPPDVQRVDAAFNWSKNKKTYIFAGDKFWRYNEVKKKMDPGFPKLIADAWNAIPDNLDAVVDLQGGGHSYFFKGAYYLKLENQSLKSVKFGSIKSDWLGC
- ASSAY PROCEDURE: In vitro MMP inhibition, IC50 determination (fluorogenic substrate I)
- Assay type: biochemical
- MEASUREMENT CONDITIONS: value outside parentheses (Ki in parenthesis)
PROPERTY: IC50 (µM)

These recorded examples may help you get a feel for the data.
INSERT INTO results (compound, measurement_target, readout_unit, numeric_result) VALUES
  ('Cc1cc(C(=O)CCCCOc2ccc(S(=O)(=O)C3(C(=O)NO)CCOCC3)cc2)ccc1OC(C)C', 'Human recombinant MMP-2 (Homo sapiens, UniProt P08253)', 'µM', 0.253),
  ('O=C(NO)C1(S(=O)(=O)c2ccc(OCCCCCn3cnc4ccccc43)cc2)CCOCC1', 'Human recombinant MMP-2 (Homo sapiens, UniProt P08253)', 'µM', 0.0023),
  ('O=C(CCCCOc1ccc(S(=O)(=O)C2(C(=O)NO)CCOCC2)cc1)c1ccc2ccccc2c1', 'Human recombinant MMP-2 (Homo sapiens, UniProt P08253)', 'µM', 0.0582),
  ('COC(C)(C)CCCC(C)CCOc1ccc(S(=O)(=O)C2(C(=O)NO)CCOCC2)cc1 (stereo not shown)', 'Human recombinant MMP-2 (Homo sapiens, UniProt P08253)', 'µM', 0.012),
  ('CN(C)c1ccc(NC(=O)CCCOc2ccc(S(=O)(=O)C3(C(=O)NO)CCOCC3)cc2)cc1', 'Human recombinant MMP-2 (Homo sapiens, UniProt P08253)', 'µM', 0.0102),
  ('O=C(NCCCOc1ccc(S(=O)(=O)C2(C(=O)NO)CCOCC2)cc1)c1ccncc1', 'Human recombinant MMP-2 (Homo sapiens, UniProt P08253)', 'µM', 0.351),
  ('CC(C)N(Cc1ccc(C(=O)CCCCOc2ccc(S(=O)(=O)C3(C(=O)NO)CCOCC3)cc2)cc1)C(C)C', 'Human recombinant MMP-2 (Homo sapiens, UniProt P08253)', 'µM', 0.0127),
  ('C/C(=C\c1ccccc1)COc1ccc(S(=O)(=O)C2(C(=O)NO)CCOCC2)cc1', 'Human recombinant MMP-2 (Homo sapiens, UniProt P08253)', 'µM', 0.004);

I = O=C(NCCCOc1ccc(S(=O)(=O)C2(C(=O)NO)CCOCC2)cc1)C1CCCC1
II = COc1ccc2cc(C(=O)CCCCOc3ccc(S(=O)(=O)C4(C(=O)NO)CCOCC4)cc3)ccc2c1
III = COc1ccc(CC(=O)CCCOc2ccc(S(=O)(=O)C3(C(=O)NO)CCOCC3)cc2)cc1
IV = COC(C)(C)CCOc1ccc(S(=O)(=O)C2(C(=O)NO)CCOCC2)cc1
V = COc1cc(SC)ccc1C(=O)NNC(=O)CCCOc1ccc(S(=O)(=O)C2(C(=O)NO)CCOCC2)cc1
// ascending sort on recorded IC50 Could you list the labels in the order requested?
III, IV, V, II, I

1 = O=C(NCCCOc1ccc(S(=O)(=O)C2(C(=O)NO)CCOCC2)cc1)c1cc2cccc(O)c2cc1O
2 = CCCC(CCOc1ccc(S(=O)(=O)C2(C(=O)NO)CCOCC2)cc1)S(C)(=O)=O (stereo not shown)
3 = COc1cccc(SCC(C)(C)COc2ccc(S(=O)(=O)C3(C(=O)NO)CCOCC3)cc2)c1
# desc sort on IC50 across 3 compounds Could you list the labels in the order requested?
2, 3, 1
(2: 2.5 µM, 3: 1.5 µM, 1: 0.258 µM)

----------
- MEASUREMENT TARGET: Human recombinant MMP-1 (Homo sapiens)
- Construct: made in house; host or cells: MMP-1-transfected HT-1080 cells (spent media)
- ASSAY PROCEDURE: In vitro MMP inhibition, IC50 determination (fluorogenic substrate I)
- Format: biochemical
- MEASUREMENT CONDITIONS: value outside parentheses (Ki in parenthesis)
PROPERTY: IC50 (µM)

These recorded examples may help you get a feel for the data.
INSERT INTO assay_data (smiles_input, property, numeric_result) VALUES
  ('O=C(NO)C1(S(=O)(=O)c2ccc(OCCSc3nc4ccccc4o3)cc2)CCOCC1', 'IC50', 4.7),
  ('O=C(CCCOc1ccc(S(=O)(=O)C2(C(=O)NO)CCOCC2)cc1)Cc1ccc(Cl)cc1', 'IC50', 2.73);

A = O=C(NO)C1(S(=O)(=O)c2ccc(OC3CCOCC3)cc2)CCOCC1
B = N#Cc1ccc(N2CCN(CCCOc3ccc(S(=O)(=O)C4(C(=O)NO)CCOCC4)cc3)C2=O)cc1
Out of A and B , name the one with the higher IC50. Kindly give the label for the entry you pick.
B
(B: 8.13 µM, A: 4.2 µM)

----------
The reader will find reported pKi values listed item by item below.
- MEASUREMENT TARGET: Human recombinant MMP-14 (Homo sapiens)
- Construct: The catalytic domain enzyme was expressed in E. coli inclusion bodies, solubilized in urea; made in house
- ASSAY PROCEDURE: In vitro MMP inhibition, Ki determination (fluorogenic substrate II)
- Type: biochemical
- MEASUREMENT CONDITIONS: value in parenthesis
pKi: −log10 of the molar value.

INSERT INTO measurements (smiles_input, measurement_target, result) VALUES
  ('Cc1ccc(-c2cccc(CCCOc3ccc(S(=O)(=O)C4(C(=O)NO)CCOCC4)cc3)c2)cc1C', 'Human recombinant MMP-14 (Homo sapiens)', '< 5.00'),
  ('O=C(NO)C1(S(=O)(=O)c2ccc(OCCc3cccc(-c4ccc(Cl)cc4Cl)c3)cc2)CCOCC1', 'Human recombinant MMP-14 (Homo sapiens)', '< 5.00'),
  ('Cc1cc(NC(=O)CCCOc2ccc(S(=O)(=O)C3(C(=O)NO)CCOCC3)cc2)ccc1OC(C)C', 'Human recombinant MMP-14 (Homo sapiens)', '< 5.00'),
  ('O=C(NO)C1(S(=O)(=O)c2ccc(OCCCc3cccc(-c4ccccc4F)c3)cc2)CCOCC1', 'Human recombinant MMP-14 (Homo sapiens)', '< 5.00');

Can you share its pKi? I mean this compound: "CC(C)c1cccc(NC(=O)CCCOc2ccc(S(=O)(=O)C3(C(=O)NO)CCOCC3)cc2)c1"
5.23

----------
- MEASUREMENT TARGET: Human recombinant MMP-9 (Homo sapiens, UniProt P14780)
- Construct: made in house; host or cells: MMP-9-transfected HT1080 cells (spent media)
- Sequence (P14780 107-707 limits assumed): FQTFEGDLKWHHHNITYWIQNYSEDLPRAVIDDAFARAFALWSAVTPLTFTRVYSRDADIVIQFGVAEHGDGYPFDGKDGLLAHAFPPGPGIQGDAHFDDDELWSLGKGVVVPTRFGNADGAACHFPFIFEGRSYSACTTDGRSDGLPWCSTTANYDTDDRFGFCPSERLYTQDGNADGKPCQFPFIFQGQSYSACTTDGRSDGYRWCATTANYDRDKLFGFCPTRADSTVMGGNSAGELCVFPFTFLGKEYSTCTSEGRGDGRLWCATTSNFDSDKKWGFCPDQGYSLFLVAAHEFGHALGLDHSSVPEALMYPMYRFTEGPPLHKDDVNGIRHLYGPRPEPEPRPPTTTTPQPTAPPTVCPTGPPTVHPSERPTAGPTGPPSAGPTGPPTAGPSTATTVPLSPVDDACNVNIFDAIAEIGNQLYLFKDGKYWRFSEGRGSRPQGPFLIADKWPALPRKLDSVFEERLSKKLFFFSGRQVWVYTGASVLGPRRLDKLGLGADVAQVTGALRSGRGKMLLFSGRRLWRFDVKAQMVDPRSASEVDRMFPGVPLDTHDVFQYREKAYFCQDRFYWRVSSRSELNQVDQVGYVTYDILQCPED
- ASSAY PROCEDURE: In vitro MMP inhibition, IC50 determination (fluorogenic substrate I)
- Format: biochemical
- MEASUREMENT CONDITIONS: value outside parenthesis
- Method: Several hydroxamates and salts thereof were analyzed in in vitro assays to determine their ability to inhibit the MMP cleavage of peptide substrates. Inhibition (Ki) and IC50 constants were calculated from the assayed hydroxamate-MMP interactions. […] The assays from which the IC50 determinations were made were performed as follows. […] The assayed hydroxamate samples were, incubated in Microfluorrm White Plates (Dynatech, Chantilly, VA) and analyzed on a Perkin Elmer L550 plate reader (Norwalk, Conn.). […]
pIC50: −log10 of the molar value.
PROPERTY: pIC50

These recorded examples may help you get a feel for the data.
INSERT INTO measurements (compound, property, numeric_result) VALUES
  ('O=C1CN(c2ccc(OC(F)(F)F)cc2)C(=O)N1CCCOc1ccc(S(=O)(=O)C2(C(=O)NO)CCOCC2)cc1', 'pIC50', 5.22),
  ('O=C(NO)C1(S(=O)(=O)c2ccc(OCCCc3cccc(Br)c3)cc2)CCOCC1', 'pIC50', 6.95),
  ('O=C(NO)C1(S(=O)(=O)c2ccc(OCCSc3nc4ccc(Cl)cc4o3)cc2)CCN(C2CC2)CC1', 'pIC50', 7.32),
  ('CC1CC(C)CN(S(=O)(=O)CCCOc2ccc(S(=O)(=O)C3(C(=O)NO)CCOCC3)cc2)C1 (stereo not drawn)', 'pIC50', 6.27),
  ('COc1ccc(C(=O)C(O)CCOc2ccc(S(=O)(=O)C3(C(=O)NO)CCOCC3)cc2)cc1 (stereo not drawn)', 'pIC50', 6.99);

I = COCCN1CCC(C(=O)NO)(S(=O)(=O)c2ccc(OCCCc3cccc(-c4ccc(F)cc4)c3)cc2)CC1
II = COCCN1CCC(C(=O)NO)(S(=O)(=O)c2ccc(OCCCc3nc(-c4ccc(CC(C)C)cc4)no3)cc2)CC1
III = O=C1N(CCCOc2ccc(S(=O)(=O)C3(C(=O)NO)CCOCC3)cc2)CCN1c1ccc(F)cc1
# desc sort on pIC50 across 3 compounds Could you list the labels in the order requested?
III, I, II
(III: 7.34, I: 5.77, II: 5.14)

----------
- MEASUREMENT TARGET: Human recombinant MMP-1 (Homo sapiens, UniProt P03956)
- Construct: made in house; host or cells: MMP-1-transfected HT-1080 cells (spent media)
- Sequence (P03956 100-469): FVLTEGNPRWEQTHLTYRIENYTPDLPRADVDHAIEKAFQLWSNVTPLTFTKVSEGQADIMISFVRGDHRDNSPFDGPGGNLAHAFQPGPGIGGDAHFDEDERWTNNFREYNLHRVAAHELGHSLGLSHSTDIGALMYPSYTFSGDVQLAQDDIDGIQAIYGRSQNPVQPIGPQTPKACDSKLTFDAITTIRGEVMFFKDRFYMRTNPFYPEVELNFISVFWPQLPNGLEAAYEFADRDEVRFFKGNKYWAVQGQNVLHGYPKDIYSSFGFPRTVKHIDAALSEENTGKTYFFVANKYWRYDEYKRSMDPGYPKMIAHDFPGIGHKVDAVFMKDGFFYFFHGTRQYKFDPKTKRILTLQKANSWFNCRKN
- ASSAY PROCEDURE: In vitro MMP inhibition, Ki determination (fluorogenic substrate II)
- Type: biochemical
- MEASUREMENT CONDITIONS: value in parenthesis
PROPERTY: Ki (µM)

a = Cc1cc(OC(F)(F)F)ccc1NC(=O)CCCOc1ccc(S(=O)(=O)C2(C(=O)NO)CCOCC2)cc1
b = O=C(NO)C1(S(=O)(=O)c2ccc(OCCCc3cccc(-c4ccco4)c3)cc2)CCOCC1
c = O=C(CCCOc1ccc(S(=O)(=O)C2(C(=O)NO)CCOCC2)cc1)Nc1ccc(OC(F)(F)F)cc1 [Example 228]
Order the 3 listed items from lowest to highest according to Ki. Could you list the labels in the order requested?
a, c, b
